- target_system: human ATP Binding Cassette Subfamily C Member 1 (ABCC1) (UniProt P33527 1-1531)
- assay_explanation: FACS titration on C6 cells
pKd: −log10 of the molar value.
Quick reference for pKd among some binders
test_readout: pKd

INSERT INTO assay_data (binder, test_readout, reported_measurement) VALUES
  ('C1.773 (antibody, V domains shown) VH: EIQLAQSGPELVKPGASVKMSCKASGYSFIGYFMNWVKQSHGKSLEWIGRINPYNGDTFYNQKFKGKATLTVDKSSSTAHMELRSLTSEDSALYYCTRSGWGYDVYSFDYWGQGTLVTVSS VL: DIQMTQTPSSLSASLGDRVTISCRASQDISNYLNWYQQKPDGTVKLLIYYTSRLHSGVPSRFSGSGSGTDYSLTISNLEQEDIATYFCQQGNTLPWTFGGGTKLEIK', 'pKd', 8.19),
  ('C1.779B (antibody, V domains shown) VH: EVKLLESGPGLVQPSQTLSLTCTVSGFSLTSNGVIWVRQPPGKGLEWIAAISSGGNIYYNSGLKSRLGISRDTSKSQVFLKMNSLQTEDTAIYFCTRARGTTTAYFMDAWGQGASVTVSS VL: ETVMTQSPSSLAVSAGETVTMNCKSSQSLLYSGNQKNYLAWYQQKPGQSPKLLIYWASTRQSGVPDRFIGSGSGTDFTLTISSVQAEDLAIYYCQQYYDTLMKMFGAGTKLEIK', 'pKd', 7.08),
  ('C1.773a (antibody, V domains shown) VH: EVQLKESGPGLVQPSQTLSLTCTVSGFSLTSNGVSWVRQPPGKGLEWIAAISSGGSIYYNSAFKSRLSISRHTSKSQVLLKMNSLQTEDTAMYFCARHRGYYGYNWGYFDYWGQGASVTVSS VL: NIQLTQSPSLLSASVGDRVTLSCKGSQNINNYLAWYQQKLGEAPKLLIYKTNSLQTGIPSRFSGSGSGTDYTLTISSLHSEDLATYYCSQYNNGYTFGAGTKLEIK', 'pKd', 7.48),
  ('C1.784a (antibody, V domains shown) VH: EVKLEESGPGLVQPSQTLSLTCTVSGFSLTNNGVSWVRQPPGKGLEWIAAMSSGGNIYYNSAFKSRLSISRDTSKSQVLLKMSSLQTEDTAMYFCGRHRGYYWYNWGFFDYWGQGASVTVSS VL: NIQLTQSPSLLSASVGDRVTLSCKGSQNINNYLAWYQQKLGEAPKLLIYKTNSLQTGIPSRFSGSGSGTDFTLTISSLHSEDLATYYCCQYNNGYTFGAGTKLELK', 'pKd', 7.42),
  ('C1.781A (antibody, V domains shown) VH: EVQLTESGPGLVQPSQTLSLTCTVSGFSLTSNGVSWVRLPPGKGLEWIAAISSGGNIYYNSALKSRLSISRDTSKSQVFLKMNSLQTEDTAIYFCTRERGWNYPGITNGYYFDYWGQGTSVTVSS VL: DIVLTQSPSLLSASVGDRVILSCKAGQKINNYLAWYQQKLGEAPKLLIYNANSLQTGIPSRFSGSGSGTDYTLTISSLQPEDVATYFCQQYNSWYTFGAGTKLEIK', 'pKd', 6.94),
  ('C1.777a (antibody, V domains shown) VH: EVQLVESGPGLVQPSQTLSLTCTVSGFSLTNNGVSWVRQPPGKGLEWIAAISSGGSIYYNLAFKSRLSISRNTSKGHVLLKMNSLQTEDTAMYFCVRHRGYYGFNWGYFDYWGQGVMVTVSS VL: NIQLTQSPSLLSASVGDRVTLSCKGSQNINNYLAWYQQKLGEAPKLLIYKTNSLQTGIPSRFSGSGSGTDYTLTISSLHSEDLATYYCYQYNDGYTFGAGTKLELK', 'pKd', 7.39),
  ('C1.505.hu11 (antibody, V domains shown) VH: EVQLQESGPGLVKPSETLSLTCTVSGFSLTSNGVSWVRQPPGKGLEWIAAISSGGSTYYNSAFKSRLTISRDTSKNQVSLKLSSVTAADTAVYYCARHRGYYWSNWGYFDYWGQGTLVTVSS VL: DIQLTQSPSSLSASVGDRVTITCKGSQNINNYLAWYQQKPGKAPKLLIYKTNSLQTGIPSRFSGSGSGTDYTLTISSLQPEDFATYYCCQYNDGYTFGQGTKLEIK', 'pKd', 6.80),
  ('C1.309 (antibody, V domains shown) VH: QVQLKESGPGLVAPSQSLSITCTVSGFSLTSYDITWIRQPPGKGLEWLGVIWTGGGTNYNSAFMSRLSISKDSSKSQVFLKMNSLRTDDTAIYYCVRDLRYGYDGFWYFDVWGAGTTVTVSS VL: DVVMTQTPLSLPVSLGDQASISCRSSQSIVHSNGNTYLEWYLQKPGQSPKLLIYKVSNRFSGVPDRFSGSGTGTDFTLKISRVEAEDLGVYYCFQGSHVPRTFGGGTKLEIK', 'pKd', 6.88),
  ('C1.778b (antibody, V domains shown) VH: EVQRKESGPGLVQPSQTLSLTCTVSGFSLTNNGVSWVRQPPGKGLEWIAAISSGGSIYYNSAFKSRLSISRITSKSQVLLKMNSLQTEDTAMYFCARHRGYYGYNWGYFDYWGQGVMVTVSS VL: NIQLTQSPSLLSASVGDRVTLSCKGSQNIDNYLAWYQQKLGEPPKLLIYKTNSLQTGIPSRFSGSGSGTDYTLTISSLHSEDLATYYCYQYNNGYTFGAGTKLELKR', 'pKd', 6.18),
  ('C1.505 (antibody, V domains shown) VH: EVQLTESGPGLVQPSQTLSLTCTVSGFSLTSNGVSWVRLPPGKGLEWIAAISSGGNIYYNSALKSRLSISRDTSKSQVFLKMNSLQTEDTAIYFCTRERGWNYPGITNGYYFDYWGQGASVTVSS VL: DIVLTQSPSLLSASVGDRVILSCKAGQKINNYLAWYQQKLGEAPKLLIYNANSLQTGIPSRFSGSGSGTDYTLTISSLQPEDVATYFCQQYNSWYTFGAGTKLEIK', 'pKd', 7.09);

// provenance: patent US20230272117A1
